Listed here: items and their measured TGI.
- System: SN12C renal
- Assay protocol: NCI tumour cell line growth inhibition, 48 h
Measured metric: TGI

COc1ccc(N=Cc2ccc(N(CCC#N)S(=O)(=O)c3ccccc3)cc2C)cc1; > 100 µM
CCOC(=O)c1sc2nc1CSc1sc(=S)sc1SCc1nc(sc1C(=O)OCC)-c1nc(c(C(=O)OCC)s1)CSc1sc(=S)sc1SCc1nc-2sc1C(=O)OCC; > 10 µM
Cc1ccc(C(=O)Nc2ncn(C3CC(O)C(CO)O3)c(=O)n2)cc1 (centres undefined); > 100 µM
O=C([CH-]C(=O)c1ccccc1)c1ccccc1.O=C([CH-]C(=O)c1ccccc1)c1ccccc1.O=C([CH-]C(=O)c1ccccc1)c1ccccc1.[Cl-].[Hf+4]; > 100 µM
C=C(Cl)C(C)(Cl)CCC(Cl)C(C)C (centres undefined); > 100 µM
Cc1cc(=O)n2c3c(c4c(cc13)c(CN(C)C)cc(=O)n4C)OC2; > 100 µM
CCCCCCCCCCOCCOCCOCCOCCCCC(O)CCCCCCCC1=C[C@H](C)OC1=O (some centres undefined); 29.9 µM
C(#CC1(Nc2ccccc2)CCN(Cc2ccccc2)CC1)C1(Nc2ccccc2)CCN(Cc2ccccc2)CC1; > 56.2 µM
Cc1cc2c(cc1Cl)SC(c1ccccc1O)NS2(=O)=O (centres undefined); > 100 µM

====

- System: COLO 205 colon
- Assay protocol: NCI tumour cell line growth inhibition, 48 h
Answer N if TGI is under 7 µM, and Y if it is 7 µM or more.

CN(C)CC1CCC/C(=C\c2ccccc2)C1=O (stereo not given); N
CCN(CCO)CCNc1ccc(C)c2sc3ccccc3c(=O)c12; N
CC[PH+](CC)CC.CC[PH+](CC)CC.[Au]; Y
Cc1cc2c(cc1Cl)SC(NNC1=NCCN1)=NS2(=O)=O; Y
COc1cccc(NC(=O)CC(=O)NN2C(=O)/C(=C/c3ccc(N(CCC#N)CCC#N)cc3)N=C2c2cc([N+](=O)[O-])ccc2Cl)c1; Y
O=C1C(=O)N(c2ccc(Cl)cc2)C(=O)C(=Nc2cccc3c(=O)[nH][nH]c(=O)c23)C1c1nc2ccccc2o1 (stereo not given); Y
O=C1C=C(c2ccccc2)O/C1=C\C(=O)c1ccc(Cl)cc1; Y
c1ccc2c(CNCCCCCCCCNCc3cccc4ccccc34)cccc2c1; N
Cc1cccc(Cl)c1NC(=O)c1cnc(Nc2cc(N3CCOCC3)cc(S(C)(=O)=O)c2)s1; Y

====

- System: NCI-H522 lung
- Assay protocol: NCI tumour cell line growth inhibition, 48 h; in the data active = GI50 below about 0.43 µM; inactive = the rest
Classes used: true (1) for active, false (0) for inactive

N#Cc1c(N/N=C\c2ccc(Cl)cc2)nc(N)nc1N1CCOCC1; false (0)
C=C1C(=O)O[C@H]2[C@H]1CC/C(CNC(=O)/C=C/c1ccccc1F)=C\CC[C@@]1(C)O[C@@H]21; true (1)
O=c1oc2ccc(Br)cc2c(=O)n1-c1ccc(Cl)cc1F; false (0)
CC(=O)OCCCC#CC#Cc1cccc(=O)o1; false (0)
Cc1ccsc1-c1ccc2c(c1)COC2(CCCN(C)C)c1ccc(F)cc1 (centres undefined); false (0)
COc1cc(/C=C/C(=O)c2c(-c3ccc(F)cc3)nc3sc(C)nn23)cc(OC)c1OC; false (0)
COC(=O)[C@@H](C)C[C@H](Cc1ccccc1)NC(=O)c1csc([C@@H](C[C@H](C(C)C)N(C)C(=O)[C@@H](NC(=O)[C@H]2CCCN2C)C2CC2)OC(C)=O)n1; true (1)
CNC(=O)c1cccc(C#Cc2cncnc2Nc2ccc(OCc3cccc(F)c3)c(Cl)c2)c1; false (0)
O=[N+]([O-])c1ccc2c(c1)C(c1ccccc1Cl)=Nc1c(n[nH]c1-c1cccnc1)N2; false (0)

====

Listed here: items and their measured TGI.
- Tested on: COLO 205 colon
- Assay protocol: NCI tumour cell line growth inhibition, 48 h
Measured metric: TGI (µM)

COc1cc(C2c3cc4c(cc3OC(NCCO)C2C)OCO4)cc(OC)c1O (stereo not given); 84.2
COc1ccc2c(c1)C(c1cc(OC)c3c(c1)OCO3)C1=C(COC1=O)N2 (stereo not given); 0.713
CC(C)C(=O)c1c(C(F)(F)F)n([O-])c2ccccc2[n+]1=O; 2.97
CCCCCCCCCCOCCOCCOCCOCCCCC(O)CCCCCCCC1=C[C@H](C)OC1=O (stereo not given in full); 34.5

====

Listed here: items and their measured GI50.
- System: SNB-75 CNS
- Assay protocol: NCI tumour cell line growth inhibition, 48 h
Measured metric: GI50

O=c1oc2ccc(Br)cc2c(=O)n1-c1ccc(Cl)cc1F; 0.572 µM
Cn1cc(C2=C(c3cn(CCCCCO)c4ccccc34)C(=O)NC2=O)c2ccccc21; 1.21 µM
CC/C=C\C[C@H](O)C/C=C1/C(=O)C=C[C@@H]1C/C=C\CCCCO; 11 µM
COC(=O)[C@@H](C)C[C@H](Cc1ccccc1)NC(=O)c1csc([C@@H](C[C@H](C(C)C)N(C)C(=O)[C@@H](NC(=O)[C@H]2CCCN2C)C2CC2)OC(C)=O)n1; 0.0025 µM
N#Cc1c(N/N=C\c2ccc(Cl)cc2)nc(N)nc1N1CCOCC1; 57.3 µM
Oc1ccccc1/C=N\NC(=S)N/N=C/c1ccccc1O; 2.24 µM
O=S(=O)(NCCCNc1cc(-c2cn(-c3ccccc3)nc2-c2cccc(O)c2)ccn1)c1ccc(Br)cc1; 1.22 µM
[Cu+2].[NH-]C(CC(=O)O)C(=O)O.[NH-]C(CC(=O)O)C(=O)O (centres undefined); > 100 µM
CN(C)CCNC(=O)c1ccc2oc3cc4ccccc4c(=O)n3c2c1; 22.9 µM
CC(C)Cc1ccc(C(C)C(=O)NCc2ccc(Cn3c(=O)sn(CCCI)c3=O)cc2)cc1 (centres undefined); 0.558 µM
COc1ccc2nc3cccc([N+](=O)[O-])c3c(NC(C)CN(C)C)c2c1 (centres undefined); 2.25 µM
Cc1c2c(nn1-c1ccc(S(=O)(=O)NC(=S)NC(=O)c3ccccc3)cc1)-c1ccccc1CC2; 59.5 µM
Cc1ccc(OCCOCCOCCOCCOCCOc2ccc(C)n(O)c2=S)c(=S)n1O; 0.456 µM
CCNCCNc1cc(-c2ccc(C(F)(F)F)cc2)c(C#N)c2nc3cc(Cl)c(Cl)cc3n12; 1.38 µM
COc1cc2nc3cc([N+](=O)[O-])ccc3c(NCCNCC(C)O)c2cc1OC (centres undefined); 0.675 µM
NCCSC(c1ccccc1)(c1ccccc1)c1ccccc1; 1.73 µM
C=CCOC(=O)Nc1cccn([C@H](CC(C)C)C(=O)NCCC(C)C)c1=O; 4.91 µM
Cc1cccc(Cl)c1NC(=O)c1cnc(Nc2cc(N3CCOCC3)cc(S(C)(=O)=O)c2)s1; 0.0202 µM
Cc1ccsc1-c1ccc2c(c1)COC2(CCCN(C)C)c1ccc(F)cc1 (centres undefined); 1.72 µM

====

- Tested on: DU-145 prostate
- Assay protocol: NCI tumour cell line growth inhibition, 48 h; in the data active = GI50 below about 0.43 µM; inactive = the rest
Classes used: yes (1) for active, no (0) for inactive

C=C1c2nc3ccccc3n2C=C(c2ccc(Cl)cc2)N1c1ccc(OCCN2CCCCC2)cc1; no (0)
CCCCCCCCCCCCCCCCN(CC)CC; no (0)
CN(C)CCS(=O)(=O)Nc1cc(-c2ccc3ncc(C#N)c(Nc4ccc(F)c(Cl)c4)c3c2)cnc1Cl; yes (1)
O=S(=O)(NCCCNc1cc(-c2cn(-c3ccccc3)nc2-c2cccc(O)c2)ccn1)c1ccc(Br)cc1; no (0)
CNC(=O)c1cccc(C#Cc2cncnc2Nc2ccc(OCc3cccc(F)c3)c(Cl)c2)c1; no (0)
Cn1c(=O)c(Oc2ccc(F)cc2F)cc2cnc(NC3CCOCC3)nc21; no (0)
[Cu+2].[NH-]C(CC(=O)O)C(=O)O.[NH-]C(CC(=O)O)C(=O)O (configuration not stated); no (0)
C=CC(=O)N1CC[C@H](n2nc(C#Cc3cc(OC)cc(OC)c3)c3c(N)ncnc32)C1; no (0)
O=C(c1ccccc1)c1nc2ccc(C(F)(F)F)cc2nc1N1CCN(c2ccccc2)CC1; no (0)
CN(C)CCNC(=O)c1ccc2oc3cc4ccccc4c(=O)n3c2c1; no (0)
O=C1c2c(Cl)c(Cl)c(Cl)c(Cl)c2C(=O)C2(Cl)CC=CCC12Cl (configuration not stated); no (0)
NC(=O)c1cc(Br)ccc1NC(=O)/C=C/c1ccccc1; no (0)

====

- Test system: SNB-75 CNS
- Assay protocol: NCI tumour cell line growth inhibition, 48 h
Listed here: items and their measured TGI.
Measured metric: TGI

CC(C)=NNC(=S)NC12CC3CC(CC(C3)C1)C2; > 100 µM
Cc1cn(C2CCN(CC3COC(C)(C)O3)O2)c(=O)[nH]c1=O (stereo unspecified); > 100 µM
CCCCC1(O)CC2CC1C(C)C2(C)C (stereo unspecified); > 100 µM
CC(=O)NNc1nc(C)c(C(=O)/C=C/c2ccc(Cl)c(Cl)c2)s1; > 100 µM
Cc1cc2c(cc1Cl)SC(c1ccccc1O)NS2(=O)=O (stereo unspecified); > 100 µM
NC(N)=Nc1ccc(/C=C2\C=Cc3ccccc32)cc1; 8.99 µM
COc1cc(/C=C2\N=C(c3ccccc3)N(c3nc4ccc(Sc5ccccc5)cc4[nH]3)C2=O)cc(OC)c1OC; > 100 µM
CN(C)C=Nc1c(I)cc(I)c(CCC(=O)O)c1I; > 100 µM
CN(C)CC1CCC/C(=C\c2ccccc2)C1=O (stereo unspecified); 26.7 µM
Cc1ccccc1C(C(=O)NC1CCCCC1)N(C(=O)CNc1ncccc1F)c1cccc(F)c1 (stereo unspecified); 24.6 µM
Cn1cc(-c2nnc(-c3ccc(Cl)cc3)[nH]c2=O)c2ccccc21; 35.1 µM
